Here the recorded clearance is given for each entry.
- assay procedure: Pharmacokinetics in cynomolgus monkeys after IV and PO administration
- Format: in vivo
- run parameters: male, cynomolgus monkey, plasma, iv, 2 mg/kg, IV, 2 mg/kg, read-out: Clearance rate Cl
Respond with the bare value in mL/min/kg.

I have this compound here, O=C(O)CSc1nnc(Br)n1-c1c(Cl)cc(C2CC2)c2ccccc12 [Compound 1] , and I need its recorded clearance.
4.2

Pending compound:
Looking for the measured clearance of O=C(O)CSc1nnc(Br)n1-c1c(Cl)cc(C2CC2)c2ccccc12 (single isomer, unassigned) [Compound 1a] , can you help?
4.88

* * *

In this section we review reported Tmax values for a set of compounds.
- assay procedure: Pharmacokinetics in cynomolgus monkeys after IV and PO administration
- Type: in vivo
- run parameters: male, cynomolgus monkey, plasma, po, 10 mg/kg, PO, 10 mg/kg, read-out: Time to peak Tmax

For orientation, consider the following solved cases.
Reported Tmax for O=C(O)CSc1nnc(Br)n1-c1ccc(C2CC2)c2ccccc12 (racemic) [(±)-Lesinurad, lesinurad, reference compound] : what is it?
34.8 min

GET /values?readout=Tmax&item= O=C(O)CSc1nnc(Br)n1-c1c(Cl)cc(C2CC2)c2ccccc12 [Compound 1]
49.8 min

Proceeding to the next compound to report its Tmax.
Record request: Tmax value, item O=C(O)CSc1nnc(Br)n1-c1c(Cl)cc(C2CC2)c2ccccc12 (single isomer, unassigned) [Compound 1a]
79.8 min

* * *

- assay procedure: Pharmacokinetics in cynomolgus monkeys after IV and PO administration
- Assay type: in vivo
- run parameters: male, cynomolgus monkey, plasma, iv, 2 mg/kg, IV, 2 mg/kg, read-out: Initial concentration C0
Listed below: C0 values for each entry.
Answer in µM, number only, no unit symbol.

May I ask what C0 has been recorded for O=C(O)CSc1nnc(Br)n1-c1c(Cl)cc(C2CC2)c2ccccc12 [Compound 1] ?
42.2

Kindly review the next compound as well.
Reported C0 for O=C(O)CSc1nnc(Br)n1-c1c(Cl)cc(C2CC2)c2ccccc12 (single isomer, unassigned) [Compound 1a] : what is it?
32

* * *

- assay procedure: Pharmacokinetics in cynomolgus monkeys after IV and PO administration
- Type: in vivo
- run parameters: male, cynomolgus monkey, plasma, iv, 2 mg/kg, IV, 2 mg/kg, read-out: Apparent volume of distribution Vdss
The reader will find reported Vd values listed item by item below.
Numbers only; they are read as L/kg.

Consider the molecule O=C(O)CSc1nnc(Br)n1-c1c(Cl)cc(C2CC2)c2ccccc12 (single isomer, unassigned) [Compound 1a] and give its measured Vd.
0.533

Given the molecule O=C(O)CSc1nnc(Br)n1-c1c(Cl)cc(C2CC2)c2ccccc12 [Compound 1] , what is its reported Vd?
1.09

* * *

Catalogue of half-life values
- assay procedure: Pharmacokinetics in cynomolgus monkeys after IV and PO administration
- Assay type: in vivo
- run parameters: male, cynomolgus monkey, plasma, iv, 2 mg/kg, IV, 2 mg/kg, read-out: Half-life T1/2 (converted)
All answers are understood in h, so give the number only.

Need half-life of O=C(O)CSc1nnc(Br)n1-c1c(Cl)cc(C2CC2)c2ccccc12 [Compound 1] , thanks.
3.61

Requested field: half-life. Item: O=C(O)CSc1nnc(Br)n1-c1c(Cl)cc(C2CC2)c2ccccc12 (single isomer, unassigned) [Compound 1a]
3.39

* * *

- assay procedure: Pharmacokinetics in cynomolgus monkeys after IV and PO administration
- Assay type: in vivo
- run parameters: IV, 2 mg/kg, listed as Compound 1b (crystal form C), 2 mg/kg, read-out: Initial concentration C0
measured parameter: C0 (µM)
Report as a plain number; the unit µM is understood.

Dear colleague, I am looking for the recorded C0 of the following compound: O=C(O)CSc1nnc(Br)n1-c1c(Cl)cc(C2CC2)c2ccccc12 (single isomer, unassigned)
42.1
